Let's look at some binders and their measured Kd.
- experimental-target: T1, EsCas13d, nuclease-dead (Eubacterium siraeum, UniProt B0MS50, R295A;H300A;R849A;H854A)
- T1 sequence: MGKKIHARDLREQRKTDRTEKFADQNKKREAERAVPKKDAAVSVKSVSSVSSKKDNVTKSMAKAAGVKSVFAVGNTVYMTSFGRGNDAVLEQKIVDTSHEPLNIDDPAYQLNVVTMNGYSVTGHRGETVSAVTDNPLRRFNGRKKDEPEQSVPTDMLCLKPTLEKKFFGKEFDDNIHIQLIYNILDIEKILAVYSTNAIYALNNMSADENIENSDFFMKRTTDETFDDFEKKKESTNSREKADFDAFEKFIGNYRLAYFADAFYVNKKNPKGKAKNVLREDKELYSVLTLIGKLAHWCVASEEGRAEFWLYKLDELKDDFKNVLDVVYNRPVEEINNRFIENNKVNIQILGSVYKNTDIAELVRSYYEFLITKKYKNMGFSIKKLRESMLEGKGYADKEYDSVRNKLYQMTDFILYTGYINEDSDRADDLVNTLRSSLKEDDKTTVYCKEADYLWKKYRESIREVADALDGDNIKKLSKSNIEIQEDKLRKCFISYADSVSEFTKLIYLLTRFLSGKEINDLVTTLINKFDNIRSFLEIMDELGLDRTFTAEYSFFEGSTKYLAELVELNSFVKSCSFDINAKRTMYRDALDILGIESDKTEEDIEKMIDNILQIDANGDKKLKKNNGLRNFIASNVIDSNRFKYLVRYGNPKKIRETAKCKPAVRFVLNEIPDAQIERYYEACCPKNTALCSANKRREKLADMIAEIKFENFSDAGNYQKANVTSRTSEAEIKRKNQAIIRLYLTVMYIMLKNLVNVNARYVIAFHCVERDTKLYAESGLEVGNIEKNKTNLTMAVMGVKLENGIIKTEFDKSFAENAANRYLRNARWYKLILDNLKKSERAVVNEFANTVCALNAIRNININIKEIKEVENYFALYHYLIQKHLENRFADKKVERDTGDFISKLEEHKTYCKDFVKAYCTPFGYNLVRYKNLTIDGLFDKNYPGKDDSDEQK
- assay-procedure: crRNA (strand 1, pre-loaded); Mg2+; 40 mM Tris-HCl pH 7.5, 150 mM NaCl, 6 mM MgCl2, 1 mM DTT, 0.1% Tween-20, 0.2 mg/ml BSA; 25 C; 10 min per concentration, then washed
- condition-info: tags: His6-TwinStrep-SUMO cleaved; N-terminal SNAP kept (SNAP-Surface 488); label: 3' end held by stalled T7 RNA polymerase
Entry rule: numbers only, all in nM.

Take a look at these entries with their results.
| binder | measurement-unit | Kd |
| --- | --- | --- |
| target 2 MT 5'PFS GUA 3'PFS AAU (mixed) RNA 1: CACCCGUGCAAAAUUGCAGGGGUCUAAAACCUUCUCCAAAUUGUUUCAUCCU RNA 2: GGGAAUGGAUCCACAUCUACGAAUUCGUAAGGAUGAAACAAUUUGGAGAAGAAUAGAUCGGAAGAGCACACGU | nM | 5.8 |
| target 1 G17U,C22A (mixed) RNA 1: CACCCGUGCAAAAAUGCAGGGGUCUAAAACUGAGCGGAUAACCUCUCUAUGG RNA 2: GGGAAUGGAUCCACAUCUACGAAUUCGUAACAUAUAGAGGUUAUCCGCUCACCGAGAUCGGAAGAGCACACGU | nM | 31.3 |
| target 1 insC 3' of 9,insG 3' of 2 (mixed) RNA 1: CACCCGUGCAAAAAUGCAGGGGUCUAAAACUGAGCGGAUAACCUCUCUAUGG RNA 2: GGGAAUGGAUCCACAUCUACGAAUUCGUACCAUAGAGAGGUUACUCCGCUCGACCGAGAUCGGAAGAGCACACGU | nM | 13.8 |
| target 1 MT 5'PFS CAU 3'PFS ACU (mixed) RNA 1: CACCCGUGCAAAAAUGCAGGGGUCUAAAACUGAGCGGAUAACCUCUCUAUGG RNA 2: GGGAAUGGAUCCACAUCUACGAAUUCCAUCCAUAGAGAGGUUAUCCGCUCAACUAGAUCGGAAGAGCACACGU | nM | 61.5 |

Per the records, this binder ( target 2 MT 5'PFS CUC 3'PFS AGU (mixed) RNA 1: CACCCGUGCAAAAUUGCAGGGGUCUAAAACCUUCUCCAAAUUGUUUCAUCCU RNA 2: GGGAAUGGAUCCACAUCUACGAAUUCCUCAGGAUGAAACAAUUUGGAGAAGAGUAGAUCGGAAGAGCACACGU ) has Kd equal to 3.5

What the record says about target 1 del2,del5 (mixed) RNA 1: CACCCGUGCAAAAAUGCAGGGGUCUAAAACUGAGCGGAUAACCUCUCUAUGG RNA 2: GGGAAUGGAUCCACAUCUACGAAUUCGUACCAUAGAGAGGUUAUCCCUACCGAGAUCGGAAGAGCACACGU : Kd is 16.9

# binder target 2 MT 5'PFS GAG 3'PFS CAC (mixed) RNA 1: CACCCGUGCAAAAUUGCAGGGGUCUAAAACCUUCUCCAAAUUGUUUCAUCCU RNA 2: GGGAAUGGAUCCACAUCUACGAAUUCGAGAGGAUGAAACAAUUUGGAGAAGCACAGAUCGGAAGAGCACACGU ; its Kd = 5.1

Given item target 1 G15C,G17A (mixed) RNA 1: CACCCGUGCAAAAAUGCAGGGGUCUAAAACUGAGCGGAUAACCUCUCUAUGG RNA 2: GGGAAUGGAUCCACAUCUACGAAUUCGUACCAUAAACAGGUUAUCCGCUCACCGAGAUCGGAAGAGCACACGU , the value recorded as its Kd is 90
